target: recombinant PRL-1 (Homo sapiens); construct: 6xHis (N, cleaved yes); made in house; host or cells: E. coli One Shot BL21 Star; experiment: In vitro phosphatase assay (DiFMUP hydrolysis), PRL-1; assay type: biochemical; conditions: FDA-approved drug screen; compared to DMSO; further: test concentration or dose not given here
Sequence (Q93096 whole entry): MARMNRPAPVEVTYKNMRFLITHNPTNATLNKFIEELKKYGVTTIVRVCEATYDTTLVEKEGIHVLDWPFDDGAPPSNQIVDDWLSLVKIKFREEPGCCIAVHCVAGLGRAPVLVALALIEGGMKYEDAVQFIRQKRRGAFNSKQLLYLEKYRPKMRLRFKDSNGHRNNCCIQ
Counter-ions that a name gives are not always drawn.
result_type: % Phosphatase Activity (compared to DMSO) PRL-1 (%)
Answers are plain numbers, in %.

Oc1cccc(O)c1	100
C[C@]12CCC(=O)C=C1CC[C@@H]1[C@@H]2[C@@H](O)C[C@@]2(C)[C@H]1CC[C@]2(O)C(=O)CO [Hydrocortisone]	102
CCN[C@H]1CN(CCCOC)S(=O)(=O)c2sc(S(N)(=O)=O)cc21 [Brinzolamide]	92
Nc1ccc(/N=N/c2ccccc2)c(N)n1 [Phenazopyridine HCl]	64

API: the following record is the query input.
Given item NC(=O)CN1CC(O)CC1=O (centres unmarked) , the value recorded as its % Phosphatase Activity (compared to DMSO) PRL-1 is 94
